Quick reference: viability at 48 h, 1 µM of the listed items.
# Assay protocol: in vitro
# Setup conditions: human, HepG2-A16-CD81EGFP cells, uninfected
Provide the reading as a plain figure in %.

Please review the entries below; each comes with its answer.
{"Molecule": "CCCN(CCC)CCCN=C(S)Nc1ccc2nc(N3CCCC3)cc(C)c2c1", "Property measured": "viability at 48 h, 1 µM", "Unit abbreviation": "%", "Recorded number": 112}
{"Molecule": "CN(CC(=O)Nc1cccc(F)c1)C(=O)c1ccc(-c2cccc(C(F)(F)F)c2)o1", "Property measured": "viability at 48 h, 1 µM", "Unit abbreviation": "%", "Recorded number": 103}
{"Molecule": "CCOC(=O)C1(Cc2ccccc2C(F)(F)F)CCNCC1", "Property measured": "viability at 48 h, 1 µM", "Unit abbreviation": "%", "Recorded number": 108}
{"Molecule": "COc1ccc(NC(=O)CN(C)C(=O)c2oc3c(ccc4ccccc43)c2C)cc1", "Property measured": "viability at 48 h, 1 µM", "Unit abbreviation": "%", "Recorded number": 110}
{"Molecule": "COc1ccc(N2CCN(c3cc(C4CC(N)C4)nc(N)n3)CC2(C)C)cc1 (centres unmarked)", "Property measured": "viability at 48 h, 1 µM", "Unit abbreviation": "%", "Recorded number": 103}
{"Molecule": "CC1Cc2nc(SCC(=O)Nc3ccc4c(c3)OCO4)n(-c3ccc(F)cc3)c(=O)c2S1 (centres unmarked)", "Property measured": "viability at 48 h, 1 µM", "Unit abbreviation": "%", "Recorded number": 97}
{"Molecule": "CN1CCN(C(=O)c2ccc3c(c2)N(Cc2ccc(C(F)(F)F)cc2)C(=O)c2ccccc2S3)CC1", "Property measured": "viability at 48 h, 1 µM", "Unit abbreviation": "%", "Recorded number": 99.8}
{"Molecule": "O=C1NC(=S)S/C1=C\\C=C\\c1ccc([N+](=O)[O-])o1", "Property measured": "viability at 48 h, 1 µM", "Unit abbreviation": "%", "Recorded number": 112}
{"Molecule": "CCCCCn1c(=N)n(CC(O)COc2cccc(C)c2)c2ccccc21 (centres unmarked)", "Property measured": "viability at 48 h, 1 µM", "Unit abbreviation": "%", "Recorded number": 98.8}
{"Molecule": "Cc1cc(NC(=O)CN2CCN(c3ccc(O)cc3)CC2)no1", "Property measured": "viability at 48 h, 1 µM", "Unit abbreviation": "%", "Recorded number": 104}

Continue with the molecule presented below.
(Q) Bench note: what viability at 48 h, 1 µM did Cc1ccc(S(=O)(=O)c2nnn3c2nc(N2CCN(c4ccccn4)CC2)c2ccccc23)cc1 show?
(A) 98.6

###

# System: P. berghei-ANKA-GFP-LucCON liver stage parasites in HepG2-A16-CD81EGFP cells
# Assay protocol: P. berghei liver stage Pb-Luc assay, Method 1 (UCSD, 1536-well)
# Assay type: cell-based, Plasmodium berghei
# Setup conditions: Plasmodium berghei, 48 h, P. berghei liver stage, 3 µM compound treatment (10 mM stocks), replicate 2, normalized, average of 2 wells on a 1536 well plate; read-out: PbLuc 3uM growth rep2
Property measured: activity at 3 µM
# number then unit; no other words

(Q) P. berghei-ANKA-GFP-LucCON liver stage parasites in HepG2-A16-CD81EGFP cells / activity at 3 µM / COc1ccc([C@@]2(C(C)C)ON(c3ccccc3C(F)(F)F)C2=O)cc1 : value?
(A) 122%
